Reported kon by item:
# Target under test: T1, Human factor D (Advanced Research Inc) (human, UniProt P00746 26-253)
# T1 construct: Amine-coupled directly to a CM5 chip for BIAcore; also called factor D antigen
# T1 sequence (P00746 26-253 limits assumed): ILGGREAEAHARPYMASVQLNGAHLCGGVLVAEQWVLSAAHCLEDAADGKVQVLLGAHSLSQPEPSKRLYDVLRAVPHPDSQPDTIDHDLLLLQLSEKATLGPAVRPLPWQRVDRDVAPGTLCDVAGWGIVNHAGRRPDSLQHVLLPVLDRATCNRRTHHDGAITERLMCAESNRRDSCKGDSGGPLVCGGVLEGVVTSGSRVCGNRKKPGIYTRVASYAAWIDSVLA
# Experiment description: SPR (BIAcore), human factor D amine-coupled to CM5 chip, Fab as analyte, 1:1 model, global fit

[
  {
    "Binder": "chimeric 166-32 Fab (Fab, V domains shown, Tested as a Fab; also called chimeric Fab) VH: QIQLVQSGPELKKPGETVKISCKASGYTFTNYGMNWVKQAPGKGLKWMGWINTYTGETTYADDFKGRFVFSLETSASTAYLEINNLKNEDMATYFCEREGGVDNWGQGTTLTVSS VL: ETTVTQSPASLSMAIGEKVTIRCITSTDIDDDMNWYQQKPGEPPKLLISGGNTLRPGVPSRFSSSGYGADFVFTIDNMLSEDVADYYCLQSDNLPYTFGGGTRLEIK",
    "kon / M⁻¹ s⁻¹": 440000
  },
  {
    "Binder": "humanized anti-Factor D Fab clone #56 (Fab, V domains shown) VH: QVQLVQSGPELKKPGASVKVSCKASGYTFTNYGMNWVKQAPGQGLEWMGWINTYTGETTYADDFKGRFVFSLDTSVSTAYLQISSLKAEDTATYYCEREGGVDNWGQGTLVTVSS VL: DIQVTQSPSSLSASVRDRVTITCITSTDIDDDMNWYQQKPGKVPKLLISGGNTLRPGVPSRFSGSGSGTDFTLTISSLQPEDVATYYCLQSDNLPYTFGQGTKLEIK",
    "kon / M⁻¹ s⁻¹": 360000
  },
  {
    "Binder": "humanized anti-Factor D Fab clone #416 (Fab, V domains shown) VH: QVQLVQSGPELKKPGASVKVSCKASGYTFTSYGMNWVRQAPGQGLEWMGWINTYTGETTYADDFKGRFVFSLDTSVSTAYLQISSLKAEDTAVYYCEREGGVNNWGQGTLVTVSS VL: DIQVTQSPSSLSASVGDRVTITCITSTDIDDDMNWYQQKPGKVPKLLISDGNTLRPGVPSRFSGSGSGTDFTLTISSLQPEDVATYYCLQSDSLPYTFGQGTKLEIK",
    "kon / M⁻¹ s⁻¹": 820000
  },
  {
    "Binder": "humanized anti-Factor D Fab clone #250 (Fab, V domains shown) VH: QVQLVQSGPELKKPGASVKVSCKASGYTFTNYGLNWVRQAPGQGLEWMGWINTYTGETTYADDFKGRFVFSLDTSVSTAYLQISSLKAEDTAVYYCEREGGVNNWGQGTLVTVSS VL: DIQVTQSPSSLSASVGDRVTITCITSTDIDDDMNWYQQKPGKVPKLLISHGNTLRPGVPSRFSGSGSGTDFTLTISSLQPEDVATYYCLQSDSLPYTFGQGTKLEIK",
    "kon / M⁻¹ s⁻¹": 570000
  }
]

Ref: patent US20130171070A1
